molecular target: DYRK1A (Homo sapiens); construct: purchased Carna Biosciences, Inc. 04-130; assay: Inhibition test on activity of DYRK family, mobility shift assay (MSA): DYRK1A; format: biochemical; conditions: MSA, FITC-labeled DYRKtide peptide, ATP 100 μM; read-out: Inhibitory activity DYRK 1A (IC50 class)
pIC50: −log10 of the molar value.
What pIC50 was measured for each of the following?

C[C@@H]1C[C@@H]2[C@H](CO1)NC(=O)N2c1nc2c3c(ccc2s1)OCC3 [Example 160] :: 6.00 to 7.00
O=C1NC2CNCC2N1c1nc2c3c(ccc2s1)OCC3 (centres unmarked) [Example 3] :: 6.00 to 7.00
O=C1N[C@H]2CCCNC[C@H]2N1c1nc2c3c(ccc2s1)OCO3 [Example 55] :: 6.00 to 7.00

Can you give me pIC50 for all of these, one by one?
1. O=C1N[C@H]2CNC3(CC3)C[C@H]2N1c1nc2c3c(ccc2s1)OCC3 [Example 56]
2. CN1CC[C@@H]2[C@H](C1)NC(=O)N2c1nc2c3c(ccc2s1)OCO3 (racemic) [Example 78]

["6.00 to 7.00", "7.00 to 8.00"]

###

molecular target: DYRK1B (Homo sapiens, UniProt Q9Y463); construct: purchased Carna Biosciences, Inc. 04-131; assay: Inhibition test on activity of DYRK family, mobility shift assay (MSA): DYRK1B; type: biochemical; details: read-out: Inhibitory activity DYRK 1B
Sequence (Q9Y463 whole entry): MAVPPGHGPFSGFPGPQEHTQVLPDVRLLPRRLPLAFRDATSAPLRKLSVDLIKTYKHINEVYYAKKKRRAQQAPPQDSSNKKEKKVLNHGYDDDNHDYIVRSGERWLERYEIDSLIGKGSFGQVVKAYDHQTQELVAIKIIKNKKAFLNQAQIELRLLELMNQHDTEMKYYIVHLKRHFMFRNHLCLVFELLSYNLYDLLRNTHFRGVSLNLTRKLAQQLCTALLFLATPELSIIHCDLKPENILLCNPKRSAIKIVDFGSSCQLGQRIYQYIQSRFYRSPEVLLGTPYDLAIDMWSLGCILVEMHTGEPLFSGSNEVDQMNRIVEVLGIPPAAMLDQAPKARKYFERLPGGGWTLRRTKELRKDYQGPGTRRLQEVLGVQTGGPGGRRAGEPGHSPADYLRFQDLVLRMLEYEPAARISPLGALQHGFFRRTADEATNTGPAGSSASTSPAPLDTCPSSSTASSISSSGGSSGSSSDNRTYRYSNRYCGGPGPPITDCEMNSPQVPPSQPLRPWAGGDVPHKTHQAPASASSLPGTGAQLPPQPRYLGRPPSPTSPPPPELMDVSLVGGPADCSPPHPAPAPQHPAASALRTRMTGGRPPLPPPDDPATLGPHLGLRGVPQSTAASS
measured.parameter: IC50

N#CCN1CC[C@@H]2NC(=O)N(c3nc4c5c(ccc4s3)OCC5)[C@@H]2C1 (racemic) :: 10 to 100 nM

Could you report IC50 for every entry in the following list?
1. O=C1N[C@H]2COCC[C@H]2N1c1nc2c3c(ccc2s1)OCC3
2. O=C1N[C@H]2COC[C@H]2N1c1nc2c3c(ccc2s1)OCC3

["< 10 nM", "10 to 100 nM"]

###

Give pIC50 for every item shown.
molecular target: DYRK3 (Homo sapiens); construct: purchased Carna Biosciences, Inc. 04-133; test: Inhibition test on activity of DYRK family, mobility shift assay (MSA): DYRK3; format: biochemical; conditions: read-out: Inhibitory activity DYRK 3
pIC50: −log10 of the molar value.

Completed entries (count: 5):
O=C1N[C@H]2COCC[C@H]2N1c1nc2c3c(ccc2s1)OCC3 [Example 122] :: 6.00 to 7.00
O=C1N[C@H]2CCN(C3CC3)C[C@H]2N1c1nc2c3c(ccc2s1)OCC3 (single isomer, unassigned) [Example 110] :: ≤ 6.00
O=C1N[C@H]2COC[C@H]2N1c1nc2c3c(ccc2s1)OCC3 :: 7.00 to 8.00
N#CCN1CC[C@@H]2NC(=O)N(c3nc4c5c(ccc4s3)OCC5)[C@@H]2C1 (single isomer, unassigned) [Example 112] :: 6.00 to 7.00
O=C1N[C@@H]2CCN(C3CC3)C[C@@H]2N1c1nc2c3c(ccc2s1)OCC3 (single isomer, unassigned) :: ≤ 6.00

Each of the following entries comes with a recorded value; kindly state pIC50 for each.
1. C#CCN1CC[C@@H]2NC(=O)N(c3nc4c5c(ccc4s3)OCC5)[C@@H]2C1 (single isomer, unassigned) [Example 114]
2. CO[C@H]1C[C@@H]2[C@H](CO1)NC(=O)N2c1nc2c3c(ccc2s1)OCC3

1. 6.00 to 7.00
2. 6.00 to 7.00

###

Target: DYRK3 (Homo sapiens, UniProt O43781)
Construct: purchased Carna Biosciences, Inc. 04-133
Sequence (O43781 1-568 isoform O43781-2): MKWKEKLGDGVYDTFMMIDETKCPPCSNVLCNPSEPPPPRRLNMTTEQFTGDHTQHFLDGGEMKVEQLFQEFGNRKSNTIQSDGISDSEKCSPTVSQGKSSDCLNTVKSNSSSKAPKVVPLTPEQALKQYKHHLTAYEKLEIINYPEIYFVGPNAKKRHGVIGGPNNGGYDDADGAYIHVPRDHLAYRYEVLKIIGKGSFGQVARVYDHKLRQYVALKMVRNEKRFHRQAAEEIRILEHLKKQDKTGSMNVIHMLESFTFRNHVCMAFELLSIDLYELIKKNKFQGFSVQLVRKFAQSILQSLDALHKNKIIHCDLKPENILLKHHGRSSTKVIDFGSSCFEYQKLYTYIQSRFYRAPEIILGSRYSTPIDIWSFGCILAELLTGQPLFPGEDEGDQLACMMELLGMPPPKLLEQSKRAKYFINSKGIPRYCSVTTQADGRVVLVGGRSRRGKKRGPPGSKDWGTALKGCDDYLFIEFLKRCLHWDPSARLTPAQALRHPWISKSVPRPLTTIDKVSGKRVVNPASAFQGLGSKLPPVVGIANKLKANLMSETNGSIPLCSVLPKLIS
Assay: Inhibition test on activity of DYRK family, mobility shift assay (MSA): DYRK3
Format: biochemical
Conditions: MSA, FITC-labeled DYRKtide peptide, ATP 20 μM; read-out: Inhibitory activity DYRK 3 (IC50 class)
pIC50: −log10 of the molar value.
Answer each item with its documented pIC50.

Previously resolved entries follow.
CN1C[C@H]2NC(=O)N(c3nc4c5c(ccc4s3)OCC5)[C@H]2C1 (relative stereo) [Example 14] :: 7.00 to 8.00
O=C1N[C@H]2CCN(C3CC3)C[C@H]2N1c1nc2c3c(ccc2s1)OCO3 (single isomer, unassigned) [Example 36] :: ≤ 6.00
O=C1N[C@H]2CCN(C3COC3)C[C@H]2N1c1nc2c3c(ccc2s1)OCCO3 (racemic) [Example 80] :: ≤ 6.00

Which pIC50 value is on record for CN1CC[C@@H]2NC(=O)N(c3nc4c5c(ccc4s3)OCC5)[C@@H]2C12CC2 [Example 69] ?
≤ 6.00

###

Molecular target: DYRK2 (Homo sapiens, UniProt Q92630)
Construct: purchased Carna Biosciences, Inc. 04-132
Sequence (Q92630 74-601 limits assumed): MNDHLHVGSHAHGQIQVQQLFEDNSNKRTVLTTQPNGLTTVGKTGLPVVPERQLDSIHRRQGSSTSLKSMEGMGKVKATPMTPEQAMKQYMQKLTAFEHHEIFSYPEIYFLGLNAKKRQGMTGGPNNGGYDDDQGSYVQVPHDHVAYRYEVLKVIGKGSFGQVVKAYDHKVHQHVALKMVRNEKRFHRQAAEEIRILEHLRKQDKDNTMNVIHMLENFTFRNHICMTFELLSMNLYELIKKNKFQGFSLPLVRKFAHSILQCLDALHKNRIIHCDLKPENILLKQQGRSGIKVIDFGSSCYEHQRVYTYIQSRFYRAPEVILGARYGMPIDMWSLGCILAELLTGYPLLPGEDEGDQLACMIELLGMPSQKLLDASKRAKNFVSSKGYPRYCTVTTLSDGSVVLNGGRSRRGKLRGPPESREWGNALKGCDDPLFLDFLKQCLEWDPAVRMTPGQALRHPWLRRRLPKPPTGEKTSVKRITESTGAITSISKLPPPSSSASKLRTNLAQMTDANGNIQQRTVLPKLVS
Assay: Inhibition test on activity of DYRK family, mobility shift assay (MSA): DYRK2
Type: biochemical
Conditions: MSA, FITC-labeled DYRKtide peptide, ATP 40 μM; read-out: Inhibitory activity DYRK 2 (IC50 class)
So I've got a bunch of molecules here, and I need their IC50 values.

Worked examples follow.
CC[C@H]1C[C@@H]2[C@H](CO1)NC(=O)N2c1nc2c3c(ccc2s1)OCCO3 [Example 43] :: 100 to 1000 nM
CN1CC[C@@H]2NC(=O)N(c3nc4c5c(ccc4s3)OCC5)[C@@H]2C1 (relative stereo) [Example 7] :: ≥ 1000 nM
O=C1N[C@H]2COC[C@H]2N1c1nc2c3c(ccc2s1)OCC3 [Example 65] :: 10 to 100 nM

Hi there! I need IC50 for each item below, if you can.
1. CN1CC[C@@H]2NC(=O)N(c3nc4c5c(ccc4s3)OCC5)[C@@H]2C1 (single isomer, unassigned) [Example 28]
2. COC(=O)[C@H]1C[C@@H]2[C@H](CO1)NC(=O)N2c1nc2c3c(ccc2s1)OCC3 [Example 141]
3. O=C1N[C@H]2COC(O)C[C@H]2N1c1nc2c3c(ccc2s1)OCC3 (stereo partly drawn) [Example 150]

≥ 1000 nM
≥ 1000 nM
100 to 1000 nM

###

Target: DYRK3 (Homo sapiens)
Construct: purchased Carna Biosciences, Inc. 04-133
Sequence (O43781 1-568 isoform O43781-2): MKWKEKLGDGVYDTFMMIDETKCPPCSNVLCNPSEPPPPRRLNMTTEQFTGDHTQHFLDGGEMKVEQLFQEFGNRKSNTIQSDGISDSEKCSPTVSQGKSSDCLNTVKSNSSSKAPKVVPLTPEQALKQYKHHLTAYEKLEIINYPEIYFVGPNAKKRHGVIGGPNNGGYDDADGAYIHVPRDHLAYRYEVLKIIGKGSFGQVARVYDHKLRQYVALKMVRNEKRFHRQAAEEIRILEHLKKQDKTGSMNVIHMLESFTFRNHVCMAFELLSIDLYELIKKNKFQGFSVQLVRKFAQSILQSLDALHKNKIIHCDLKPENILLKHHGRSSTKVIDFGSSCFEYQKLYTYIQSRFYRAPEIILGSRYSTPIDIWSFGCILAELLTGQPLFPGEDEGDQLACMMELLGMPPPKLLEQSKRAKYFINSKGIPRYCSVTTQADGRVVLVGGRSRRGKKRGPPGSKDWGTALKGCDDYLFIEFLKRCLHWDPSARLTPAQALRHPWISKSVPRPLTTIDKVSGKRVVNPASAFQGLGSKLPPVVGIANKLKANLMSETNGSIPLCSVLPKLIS
Experiment: Inhibition test on activity of DYRK family, mobility shift assay (MSA): DYRK3
Format: biochemical
Details: MSA, FITC-labeled DYRKtide peptide, ATP 20 μM; read-out: Inhibitory activity DYRK 3 (IC50 class)
Description: [Inhibition Test on Activity of DYRK Family (DYRK1A, DYRK1B, DYRK2, and DYRK3)] The kinase activity was measured by mobility shift assay (MSA) method using QuickScout Screening Assist™ MSA (commercially available kit manufactured by Carna Biosciences, Inc.). […] The heights of the peaks of the “substrate” and the “phosphorylated substrate” were expressed as S and P, respectively, and a blank containing the assay buffer instead of the enzyme solution was also measured. […]
measured.parameter: IC50

CC(C)N1CC2NC(=O)N(c3nc4c5c(ccc4s3)OCC5)C2C1 (centres unmarked) [Example 16] :: ≥ 1000 nM
O=C1N[C@H]2CNCCC[C@H]2N1c1nc2c3c(ccc2s1)OCO3 [Example 54] :: 100 to 1000 nM
O=C1N[C@H]2COCCC[C@H]2N1c1nc2c3c(ccc2s1)OCCO3 [Example 135] :: 100 to 1000 nM
O=C1N[C@H]2CO[C@H](CO)[C@H]2N1c1nc2c3c(ccc2s1)OCC3 [Example 157] :: 100 to 1000 nM
C[C@H]1C[C@@H]2[C@H](CO1)NC(=O)N2c1nc2c3c(ccc2s1)OCO3 [Example 139] :: 10 to 100 nM

Take each entry in turn and give its IC50.
1. O=C1N[C@@H]2[C@@H](CO[C@@H]2CO)N1c1nc2c3c(ccc2s1)OCC3 [Example 153]
2. CN1CC[C@@H]2NC(=O)N(c3nc4c5c(ccc4s3)OCC5)[C@@H]2C1 (relative stereo) [Example 7]
3. CC[C@H]1C[C@@H]2[C@H](CO1)NC(=O)N2c1nc2c3c(ccc2s1)OCO3 [Example 138]

1. 100 to 1000 nM
2. ≥ 1000 nM
3. 100 to 1000 nM
